Attribution: ChEMBL document CHEMBL1201862

Test system: LOX IMVI
Experiment: NCI tumour cell line growth inhibition, 48 h
The source made the active and inactive calls. Rule as the data show it: active = GI50 up to about 1.1 µM and inactive = higher.
This section presents compounds with their documented GI50 values.

Here are 5 compounds together with their reported answers.
In [3]: df
Out[3]:
                                   compound  reported_endpoint          measurement
0                   CC(=O)Nc1ccc(Cl)c(Cl)c1               GI50  > 100 µM (inactive)
1  CC(=O)c1cccc(N2COC(C)(C)c3nc4ccccc4n3C2)c1               GI50  > 100 µM (inactive)
2  CN(C)CCC(=O)N1CCc2c([nH]c3ccccc23)C1c1cccnc1 (stereo unspecified)               GI50  > 100 µM (inactive)
3       CCOC(=O)Nc1nc2cc(Cn3cccc3)ccc2[nH]1               GI50   2.55 µM (inactive)
4  CN(C)Cc1cc(C(=O)/C=C/c2ccc(/C=C/C(=O)c3cc(CN(C)C)c(O)c(CN(C)C)c3)cc2)cc(CN(C)C)c1O               GI50   11.9 µM (inactive)

Task: I would be grateful if you could share the reported GI50 for N#C[C@H](c1nc2ccccc2[nH]1)c1nc2ccccc2nc1Cl .
Result: 3 µM (inactive)

Task: What do you have for Cn1c(=O)[nH]c2nncnc2c1=O ?
Result: 361 µM (inactive)

Task: What do you have for COc1ccccc1C1(C)SCc2nc3ccccc3n21 (stereo unspecified) ?
Result: > 10 µM (inactive)

Task: What do you have for CSc1nc(CO)c(CO)n1C ?
Result: > 100 µM (inactive)

Task: What do you have for Cn1c(N)c(/N=N/c2ccc(S(N)(=O)=O)cc2)c(=O)n(C)c1=O ?
Result: > 100 µM (inactive)

Task: What do you have for CN1CCN(c2ccc3nc(C4=C(O)C(=O)c5c(nc(CO)n5C)C4=O)[nH]c3n2)CC1 ?
Result: > 100 µM (inactive)

* * *

Tested on: PC-3
Experiment: NCI tumour cell line growth inhibition, 48 h
The source made the active and inactive calls. No stated cut-off is given here; in the data, active = GI50 up to about 1.1 µM and inactive = higher.
Field 'call' accepts active, inactive

Consider the following illustrative entries.
>>> df
                                   compound  system_tested     label
0         C/C(=N\Nc1nc2ccccc2o1)c1cc(C)ncn1           PC-3    active
1               COC(=O)c1cc2ccc(O)c(O)c2cn1           PC-3  inactive
2          Cc1ccc(C(=O)OC(C)C)cc1/N=N/N(C)C           PC-3  inactive
3  O=c1c2cc(I)ccc2nc(Sc2ncccc2[N+](=O)[O-])n1Cc1ccccc1           PC-3  inactive
4              COc1ccc(C#Cn2nnc3ccccc32)cc1           PC-3  inactive
5  CO[C@@H]1[C@H](OC(=O)NC(=O)CCl)CC[C@]2(CO2)[C@H]1[C@@]1(C)O[C@@H]1CC=C(C)C           PC-3  inactive
6       Cc1nc2c(O)c3c(c(O)c2nc1C)C1C=CC3CC1           PC-3  inactive
7      CN(C)c1ccc(/N=N/c2ccc3[nH]cnc3c2)cc1           PC-3  inactive
8  CCCC(=O)OC1C(C(O)CO)OC2OC(C)(C)OC21 (stereo unspecified)           PC-3  inactive
9  COC1/C=C\C=C(/C)C(=O)NC2=CC(=O)C(NCCCl)=C(CC(C)CC(OC)C(O)C(C)/C=C(/C)C1OC(N)=O)C2=O (stereo unspecified)           PC-3    active

Task: Recorded test outcome, item O=C(c1ccccc1)N1CCC(CC2(c3cc4ccccc4[nH]3)OCCO2)CC1
Result: inactive

* * *

This section presents molecules with their documented GI50 values.
System: COLO 205
Experiment: NCI tumour cell line growth inhibition, 48 h
Active and inactive are the calls of the source. Cut-off read from the data, not from the text of the source: active = GI50 up to about 1.1 µM and inactive = higher.

Here are 2 molecules together with their reported answers.
In [3]: df
Out[3]:
                                test_smiles  system_tested  reported_endpoint          measurement
0  CCOC(=O)C1=NC(c2ccccc2)(c2ccccc2)OC1=C(Cl)Cl       COLO 205               GI50  > 100 µM (inactive)
1               CCCCNc1c(CN)cnc2cc(Cl)ccc12       COLO 205               GI50   7.48 µM (inactive)

# next molecule below
Task: Which measured GI50 belongs to CCOC(=O)Nc1nc2cc(Cn3cccc3)ccc2[nH]1 , tested on COLO 205?
Result: 1.84 µM (inactive)

* * *

This section presents compounds with their documented GI50 values.
Test system: MCF7
Experiment: NCI tumour cell line growth inhibition, 48 h
Active and inactive are the calls of the source. Cut-off read from the data, not from the text of the source: active = GI50 up to about 1.1 µM and inactive = higher.

                                   compound          measurement
0  CN(CCCCN1CCCC1)CCCN(C)C(=O)Cc1ccc(Cl)c(Cl)c1   17.4 µM (inactive)
1  O=C(c1ccccc1)N1CCC(CC2(c3cc4ccccc4[nH]3)OCCO2)CC1   19.4 µM (inactive)
2  Cn1c(N)c(/N=N/c2ccc(S(N)(=O)=O)cc2)c(=O)n(C)c1=O  > 100 µM (inactive)

Task: I would be grateful if you could share the reported GI50 for CCCSC1=N/C(=C\c2ccco2)C(=O)N1 .
Result: 36 µM (inactive)

Task: What do you have for NS(=O)(=O)c1ccc(NC(=O)c2cc([N+](=O)[O-])cc([N+](=O)[O-])c2)cc1 ?
Result: 19.5 µM (inactive)

Task: What do you have for CO[C@@H]1[C@H](OC(=O)NC(=O)CCl)CC[C@]2(CO2)[C@H]1[C@@]1(C)O[C@@H]1CC=C(C)C [O-CHLOROACETYLCARBAMOYLFUMAGILLOL] ?
Result: 12.4 µM (inactive)

Task: What do you have for C=C(CN(C)C)C(=O)c1ccc(Oc2ccccc2)cc1 ?
Result: 3.3 µM (inactive)

Task: What do you have for CC1=Nc2ccccc2OC(C)=C1/N=N/c1ccc2[nH]c(C)nc2c1 ?
Result: 45.8 µM (inactive)

Task: What do you have for C/C(=N\Nc1nc2ccccc2o1)c1cc(C)ncn1 ?
Result: 0.0212 µM (active)

Task: What do you have for O=C1NC(=O)C(F)(n2cc(F)c(=O)[nH]c2=O)C(O)N1 (stereo not given) ?
Result: > 10 µM (inactive)

* * *

Test system: OVCAR-4
Experiment: NCI tumour cell line growth inhibition, 48 h
Active and inactive are the calls of the source. No stated cut-off is given here; in the data, active = GI50 up to about 1.1 µM and inactive = higher.
Field 'call' accepts active, inactive

Consider the following illustrative entries.
Molecule	Label
COC(=O)/C=c1/c2ccccc2n2nc3ccccc3c12	inactive
CC(=O)Nc1cc2c(s1)CCC1CC(=O)NN=C21 (stereo unspecified)	inactive
N=C1C(O)C2(I)c3ccccc3N3C(=N)C(O)C4c5ccccc5N1C4C32 (stereo unspecified)	inactive
O=C1/C=C(/c2ccc(O)cc2)[C@@H](OC2OC(CO)C(O)C(O)C2O)Cc2ccc(O)cc2O1.O=C1/C=C(/c2ccc(O)cc2)[C@H](O)Cc2ccc(O[C@@H]3OC(CO)C(O)C(O)C3O)cc2O1 (stereo partly specified)	inactive
OCC1OC(n2cnc3c(SCc4ccccc4)ncnc32)C(O)C1O (stereo unspecified)	inactive

Task: Recorded test outcome, item CSc1c(C(=O)Nc2ccc(C)cc2)c(N)n(N)c(=O)c1C#N
Result: inactive

Task: What do you have for C[C@]12CC[C@@H]3c4ccc(OCCN5CCCC5)cc4CC[C@H]3[C@@H]1CCC2=O ?
Result: inactive

Task: What do you have for NS(=O)(=O)c1ccc(NC(=O)c2cc([N+](=O)[O-])cc([N+](=O)[O-])c2)cc1 ?
Result: inactive

* * *

Tested on: SK-OV-3
Experiment: NCI tumour cell line growth inhibition, 48 h
The source made the active and inactive calls. Cut-off read from the data, not from the text of the source: active = GI50 up to about 1.1 µM and inactive = higher.
Reported endpoint: GI50

Task: Which measured GI50 belongs to CCSc1nnc2c(-c3ccccc3)n[nH]c2n1 , tested on SK-OV-3?
Result: 44.3 µM (inactive)

Task: What do you have for CC(=O)OC1CCn2nnc(COC(=O)NC(C)C)c21 (configuration not stated) ?
Result: > 100 µM (inactive)

Task: What do you have for OC1[C@@H]2[C@@H](O)CCCN2C[C@@H](O)[C@H]1O (some centres not stated) ?
Result: > 100 µM (inactive)

Task: What do you have for CCN(CC)C(=O)COc1ccc(Br)cc1Br ?
Result: > 100 µM (inactive)

Task: What do you have for O=C1CCc2cc3c(cc21)C(C(=O)O)CC3 (configuration not stated) ?
Result: > 100 µM (inactive)

Task: What do you have for N/N=C1\C(OC(=O)Nc2cccc(Cl)c2)=Nc2ccccc21 ?
Result: 7.43 µM (inactive)

Task: What do you have for CCc1c(CNC2=NCCN2)c(CC)c(CNC2=NCCN2)c(CC)c1CNC1=NCCN1 ?
Result: > 100 µM (inactive)

Task: What do you have for COc1c2c(cc3nc4ccccc4nc13)CC[C@H](NC(C)=O)c1cc(=O)c(SC)ccc1-2 ?
Result: 5.28 µM (inactive)

Task: What do you have for CCN(CC)Cc1cc(Nc2c3ccccc3nc3c4ccccc4n(C)c23)cc(CN(CC)CC)c1O ?
Result: 14.4 µM (inactive)

Task: What do you have for CC(=O)c1nc2ccccc2n1CC(=O)c1ccc(Cl)cc1 ?
Result: 28.1 µM (inactive)
